Source of measurements: PubChem BioAssay AID651685

# Tested on: Mu-type opioid receptor (Homo sapiens) (UniProt P35372)
# Sequence (P35372 whole entry, looked up): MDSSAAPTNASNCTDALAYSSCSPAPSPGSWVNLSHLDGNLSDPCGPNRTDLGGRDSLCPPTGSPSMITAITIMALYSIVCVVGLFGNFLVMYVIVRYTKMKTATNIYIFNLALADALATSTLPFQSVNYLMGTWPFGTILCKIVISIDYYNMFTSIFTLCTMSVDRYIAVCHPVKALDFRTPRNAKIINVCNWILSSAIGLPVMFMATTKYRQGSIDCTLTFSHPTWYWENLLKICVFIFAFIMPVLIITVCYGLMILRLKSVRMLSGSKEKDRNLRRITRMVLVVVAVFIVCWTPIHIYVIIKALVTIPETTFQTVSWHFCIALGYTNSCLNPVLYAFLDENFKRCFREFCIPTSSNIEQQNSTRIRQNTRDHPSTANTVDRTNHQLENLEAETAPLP
# Experiment notes: activators of OPRM1-OPRD1 heterodimerization, late-stage follow-up, cell-based, luminescence, dose response (AID 651685)
# Test conditions: cells, luminescence complementation
Calls of active or inactive are those of the source. The rule behind the calls is not given here.
Select the correct class. Options are active, inactive and nothing else.

Use these answered entries as a reference point.
Smiles str	Class assignment
CCOC(=O)C1(Cc2ccccc2)CCN(Cc2cccn2-c2nccs2)CC1	inactive
CCOC(=O)C1(CCOc2ccccc2)CCN(Cc2ccc(O)c(OC)c2)CC1	inactive
CCOC(=O)C1(CCc2ccccc2)CCN(Cc2ccc(NC(C)=O)cc2)CC1	active
CCOC(=O)C1(CCOc2ccccc2)CCN(Cc2cccn2-c2cccnc2)CC1	active

We next turn to a different compound, shown below.
## Input In this assay, the call recorded for `CCOC(=O)C1(CCCc2ccccc2)CCN(Cc2cnn(C)c2)CC1` was what?
## Output active
